- measurement-notes: amyloid nucleation score (Sup35N fusion, yeast selection) (log enrichment); library NNK1; higher = more nucleation; inactive = no reads after selection;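 note: zero at mode of non-aggregating sequences after 7 days selection at 30°C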
parameter-measured: amyloid nucleation score
Lab note: write the figure by itself, no unit.

The cases that follow already have their amyloid nucleation score on record.
substance=LLESFTG value_observed=-0.392
substance=PWITCCKVNGIFLTDRCRVV value_observed=0.574
substance=NQFMHGTETYFEDINALVWG value_observed=1.43
substance=KWIGIYINFDGYSVGS value_observed=7.6

Exercise: What value of amyloid nucleation score has been reported for the following substance? `VLMQVSTLAAWDSKRDMTSC`
Key: 0.528

Exercise: Look at this substance and give its reported amyloid nucleation score. `LFDSLEAVYRSYGKSWACYI`
Key: -1.63

Exercise: Look up amyloid nucleation score: `CNMHATETLNIRCVNSDAC`
Key: 0.046

Exercise: I would be grateful if you could share the reported amyloid nucleation score for `SSPIGSSSFTMGCGWREQ` .
Key: 0.599

Exercise: Entry `RERESQMYFNLFSENTY` : reported amyloid nucleation score = ?
Key: -0.435

Exercise: Sample `SFAQLMGGAVSHYVFLPWNA` — what was its amyloid nucleation score?
Key: -0.525

----------
- measurement-notes: amyloid nucleation score (Sup35N fusion, yeast selection) (log enrichment); library NNK1; higher = more nucleation; inactive = no reads after selection
parameter-measured: amyloid nucleation score
A bare number is all that is needed in reply.

Exercise: Which amyloid nucleation score is listed for `YVQFYGWRTWDLYWYLEWVV` ?
Key: -1.07

Exercise: What amyloid nucleation score value was documented for this substance, `FRVMILLLTEMWSMESNRDL` ?
Key: 3.4

Exercise: Any idea what its amyloid nucleation score is? The substance is `TFSFARLRDLKWVMPRVRRS`
Key: 0.27

Exercise: Requested read-out: amyloid nucleation score. Entry: `LKCFLINVMLLEMLPFWDRS`
Key: 1.62

Exercise: Any idea what its amyloid nucleation score is? The substance is `GEGQQSGVVSNLSGYRSNS`
Key: 0.418

----------
Measured amyloid nucleation score accompanies every entry in the list below.
- measurement-notes: amyloid nucleation score (Sup35N fusion, yeast selection) (log enrichment); library NNK1; higher = more nucleation; inactive = no reads after selection
Please state the value as a number alone, without comment.

Illustrative cases are given below, each with its answer.
sequence_content=WLWSQLVESCGRVRCSGGSG value_observed=1.37
sequence_content=SCKGQPARVTCETRFTGYER value_observed=2.32
sequence_content=ISCVICAMIILRWHV value_observed=0.045
sequence_content=ADRKSFLQSCGLCE value_observed=-0.661
sequence_content=LIPSRFMVNGDTIL value_observed=0.971
sequence_content=PSFRWIGSEMSTMFMLQVTL value_observed=0.058

Exercise: // lookup amyloid nucleation score for `CTDSEAKGCDFFGRISVNVY`
Key: 0.689

----------
- measurement-notes: amyloid nucleation score (Sup35N fusion, yeast selection) (log enrichment); library NNK1; higher = more nucleation; inactive = no reads after selection
parameter-measured: amyloid nucleation score

Field: example entries. Status: answers known.
substance=IFLIVMFPLFNDCLHCYKTC value_observed=1.3
substance=LLRRLTTI value_observed=0.696
substance=SVKNYLCLMTTPFVFVLEM value_observed=5.42
substance=IASVQLS value_observed=1.16

Exercise: Look up amyloid nucleation score for this substance: `YSRSVGYRRYFI`
Key: inactive

----------
- measurement-notes: amyloid nucleation score (Sup35N fusion, yeast selection) (log enrichment); library NNK2; higher = more nucleation; inactive = no reads after selection
Labels assigned by amyloid nucleation score range: low = under -0.1, intermediate = from -0.1 up to 1, high = 1 and over

Here are 8 substances together with their reported answers.
substance=CKWMLEENMGQEADSV label_class=low
substance=FGYLVIKFVTYVRRRTNTYN label_class=low
substance=MGMAHFDSQPLGYILGASMC label_class=low
substance=RMETTKPIRSSGTSITAPNG label_class=high
substance=CVREIYYVFCINSPVIAMDC label_class=high
substance=FMGSSIGLSSCPLEDTYVLP label_class=low
substance=RYKWFNKWYTCWYSRFKFYV label_class=low
substance=SACVLCFYQIFFYRVDCTGG label_class=high

Exercise: Bin? `YIFGSCGVYLFPPPAKF`
Key: high

Exercise: For the record `IFFVSDVESNIGRWLRRCFP` , report the class its amyloid nucleation score corresponds to.
Key: high

Exercise: Any idea which band `GYYYLFFILG` is in?
Key: high

Exercise: The entry to classify is `CAIKFPYQFTYLNINNQ` ; which class holds it?
Key: high

Exercise: read the entry `ALECHIRLKWRVSVGPGVLV` and state which class it falls under.
Key: high

Exercise: Hey, which category is `FFLSNWAAF` in, do you know?
Key: intermediate

Exercise: Note: place this substance into its band. Item: `FVVGAES`
Key: low

Exercise: Record `TTSGNTIHIYVIQLSIQKFS` — which class?
Key: high

Exercise: Tag the class for `YLSYSTLLPKSETEWMYCVL`
Key: low

Exercise: For this substance, which bin applies? `RSKHQKRSALCYFESGVTAV`
Key: intermediate

Exercise: Class? Entry: `VWLSFRVYLVMTSVLVILNC`
Key: high

Exercise: Dear colleague, I would appreciate it if you could identify the bin for `IMASLRMKDANCLSCTCYNR` and reply at your convenience.
Key: high

Exercise: Could you place `QNCSHGSLCG` in its proper category? Many thanks.
Key: intermediate

Exercise: Note: place this substance into its band. Item: `NELLNTWRLLSCPWRIWSLR`
Key: intermediate

Exercise: Note: place this substance into its band. Item: `GTRYDT`
Key: intermediate

Exercise: Note: place this substance into its band. Item: `MYCETLRRSILMVNMNPRNP`
Key: low

Exercise: # classify by amyloid nucleation score band: `SRHKFRSITFIEIHPMI`
Key: intermediate

----------
- measurement-notes: amyloid nucleation score (Sup35N fusion, yeast selection) (log enrichment); library NNK1; higher = more nucleation; inactive = no reads after selection
Listing of entries alongside the reported amyloid nucleation score.
Respond numerically, and do not add a unit to the figure.

substance=NNSSHGCRNVRNSQMSFVPQ parameter_measured="amyloid nucleation score" value_observed=-0.165
substance=SACQLFGVMVPEHRRALMVW parameter_measured="amyloid nucleation score" value_observed=0.018
substance=GILFWSGL parameter_measured="amyloid nucleation score" value_observed=1.07
substance=LFLLSTSESCFQCATPANDN parameter_measured="amyloid nucleation score" value_observed=-0.222
substance=DRCNDAVGRKRRRTKMRGLY parameter_measured="amyloid nucleation score" value_observed=0.457

In the following, a different substance is considered.
Exercise: For the substance `IVGSLYLELYSRR` , what amyloid nucleation score is on record?
Key: 1.57

----------
- measurement-notes: amyloid nucleation score (Sup35N fusion, yeast selection) (log enrichment); library NNK2; higher = more nucleation; inactive = no reads after selection
Known amyloid nucleation score of a selection of substances
Output spec: single numeric token, no unit.

substance=TRINMGIFCLQDKVPMLRDE value_observed=3
substance=WIYSFTMFATWTNVT value_observed=0.092
substance=STWPCNQPSYVSV value_observed=0.204
substance=NAFGTSFCEIMRR value_observed=1.22
substance=RKCFDRRDYIPKIGQIRMSC value_observed=-0.48

Exercise: Name the recorded amyloid nucleation score for `LHIESRLRRSSQEKSN` .
Key: 0.012

Exercise: Value lookup for amyloid nucleation score; key = `DTFPKHSQHAVVKRPQIYID`
Key: -1.04

Exercise: Request the reported amyloid nucleation score associated with `PFLSLAVFVTQAVVEHCCRC`
Key: 7.48

Exercise: What value of amyloid nucleation score has been recorded for this entry: `YLMVISEQIGDMCTISS`
Key: -1.36

Exercise: Query (substance): `VMTFMVTRTD` ; field requested: amyloid nucleation score
Key: 6.11

Exercise: Recorded amyloid nucleation score for `QMTLVHK` , please?
Key: 1.67

Exercise: Please report the recorded amyloid nucleation score for `NVTGYFSSYKVVGRMESSYV` .
Key: 1.73

Exercise: Entry `IVKPSRKLKTQGCMKFNAWL` : reported amyloid nucleation score = ?
Key: -0.284

Exercise: Reported amyloid nucleation score, substance `CAFRASFLLT` : ____
Key: 0.04

Exercise: Could you share which amyloid nucleation score value was measured for `GVTLNSCFFNRVYLTLFGIN` ?
Key: 6.95

Exercise: Return reported amyloid nucleation score; argument: `VFSCYSVQHRRLSWMSCD`
Key: -0.385

Exercise: Look up amyloid nucleation score: `DRRMGLIVPRMSDRTDPFSY`
Key: 0.489

Exercise: Need amyloid nucleation score, item `VPIKALLPHSKFGNQSRFNY`
Key: 0.438

Exercise: For the substance `QQVQNAVCGWESYCSQLNRR` , what amyloid nucleation score is on record?
Key: -0.241

Exercise: Name the recorded amyloid nucleation score for `ETHYPPQ` .
Key: 0.033

Exercise: Param item = `FFFVWESNPSIWDGTFTVEV` ; retrieve measured amyloid nucleation score.
Key: 0.21

Exercise: Please report the recorded amyloid nucleation score for `SFKFFTVQF` .
Key: 6.66

Exercise: Which amyloid nucleation score value is on record for `DNSYVMDLECLICCNFSNTK` ?
Key: 8.2

Exercise: Given `SHCSLEDG` , state its recorded amyloid nucleation score.
Key: 1.22

Exercise: // query amyloid nucleation score value for entry `LVWTVPTGVLFRHGC`
Key: 1.57

Exercise: Requested field: amyloid nucleation score. Item: `NVYIKRIWVPFSP`
Key: -0.173

Exercise: State the recorded amyloid nucleation score for this entry: `TLELLIMD`
Key: 0.385

Exercise: May I ask what amyloid nucleation score has been recorded for `PIGHLFQET` ?
Key: 0.92

Exercise: Give the measured amyloid nucleation score of `GEYGCHHVCLVQGLFGI` .
Key: -0.164

Exercise: Please look up its amyloid nucleation score: `IVDISCI`
Key: -0.541

Exercise: Any idea what amyloid nucleation score was measured for `ANLRLYICWGFDKSVINIKS` ?
Key: 6.91
